All values here come from paper PMC11864979.

- ASSAY_REMARKS: in vivo pharmacokinetic studies in mice (plasma, LC-MS)
- Design: species or system mouse
- STUDY_CONDITIONS: mouse, plasma, oral, 20 mg kg^−1, 45 min of treatment; individual animals
RECORDED_METRIC: concentration at 45 min (µM)
Record the value in µM, omitting the unit from your answer.

Consider CNC(=O)c1ccc2c(c1)C(=O)c1ccc(Nc3ccc(F)c(NC(=O)C4CC4)c3)cc1CC2 . Its measured concentration at 45 min is 26.8

* * *

- ASSAY_REMARKS: in vivo pharmacokinetic studies in mice (plasma, LC-MS)
- Set-up: species or system mouse
- STUDY_CONDITIONS: mouse, plasma, oral, 20 mg kg^−1, 480 min of treatment; individual animals
RECORDED_METRIC: concentration at 480 min (µM)
Record the value in µM, omitting the unit from your answer.

Consider CNC(=O)c1ccc2c(c1)C(=O)c1ccc(Nc3ccc(F)c(NC(=O)C4CC4)c3)cc1CC2 . Its measured concentration at 480 min is 4.26

* * *

- ASSAY_REMARKS: cell viability in healthy human colon organoids SCC311
- Type: cell-based
- STUDY_CONDITIONS: female, human, healthy human colon organoids SCC311, 2015 0,5 µM; ED Fig. 10f; replicates
RECORDED_METRIC: viability at 5 µM
Kindly format the answer as number then unit.

Consider CNC(=O)c1ccc2c(c1)C(=O)c1ccc(Nc3ccc(F)c(NC(=O)C4CC4)c3)cc1CC2 [Compound 2015] . Its measured viability at 5 µM is 96%

* * *

- Test system: HCT-15
- ASSAY_REMARKS: cell viability in human CRC cell line HCT-15
- Type: cell-based
- STUDY_CONDITIONS: Homo sapiens, 96 h; HCT-15, 4 d of treatment
RECORDED_METRIC: IC50 (nM)
Record the value in nM, omitting the unit from your answer.

Consider CNC(=O)c1ccc2c(c1)C(=O)c1ccc(Nc3ccc(F)c(NC(=O)C4CC4)c3)cc1CC2 . Its measured IC50 is 182

* * *

- ASSAY_REMARKS: cell viability in healthy human colon organoids SCC321
- Assay type: cell-based
- STUDY_CONDITIONS: male, human, healthy human colon organoids SCC321, 2015 0,25 µM; ED Fig. 10g; replicates
RECORDED_METRIC: viability at 25 µM (%)
Record the value in %, omitting the unit from your answer.

Consider CNC(=O)c1ccc2c(c1)C(=O)c1ccc(Nc3ccc(F)c(NC(=O)C4CC4)c3)cc1CC2 . Its measured viability at 25 µM is 105
